System: IGROV-1
assay text: NCI tumour cell line growth inhibition, 48 h
Active and inactive are the calls of the source. Cut-off read from the data, not from the text of the source: active = GI50 up to about 1.1 µM and inactive = higher.
measured quantity: GI50

>>> result("O=C(CCC(=O)C1Cc2ccccc2C1=O)Nc1cccc(C(F)(F)F)c1 (centres undefined)")
"> 100 µM (inactive)"
>>> result("C/C=C\\C(CC(=O)OC)CC(=O)N(CCC1CN(S(=O)(=O)C(F)(F)F)c2ccccc21)Cc1ccc(OC)cc1OC (centres undefined)")
"> 100 µM (inactive)"
>>> result("N#CC(C#N)=c1[nH]c2cccc3c2-c2c(cccc2c3=C(C#N)C#N)[nH]1")
"> 100 µM (inactive)"
>>> result("CN(C)CCCSc1nc2c(c(=N)n1-c1ccccc1)c(=S)n(-c1ccccc1)c(=S)n2-c1ccccc1")
"1.83 µM (inactive)"
>>> result("CCOC(=O)c1cc(-c2cc(OC)c(OC)c([N+](=O)[O-])c2)c([N+](=O)[O-])n1C")
"5.9 µM (inactive)"
>>> result("COc1cccc(/C=C/c2cc(OC)c(OC)c(OC)c2)c1")
"47.2 µM (inactive)"
>>> result("CCN(CC)c1ccc2cc(C(=O)Nc3ccccc3OC)c(=N)oc2c1")
"7.55 µM (inactive)"
>>> result("CC(=O)Oc1c(C)c2c(c3ncccc13)OC(C)C2 (centres undefined)")
"6.98 µM (inactive)"
>>> result("COC(=O)/C=C1\\C(=O)C=C2[C@@H]3C[C@H]4C[C@H](CC[C@@]4(C)N21)C3(C)NC(C)=O (some centres undefined)")
"20 µM (inactive)"
